# System: 485368-065-R4-J2-PDC spheroids with HUVEC/MSC, viability
# ASSAY INFO: Anticancer human tumor 485368-065-R4-J2-PDC patient-derived pancreatic carcinoma cell line growth inhibition [CLK]
# CONDITION DESCRIPTION: second compound 0.0316 µM; first compound 0.0316 µM; stronger effect = lower value
PROPERTY MEASURED: viability, T/C (%)
I only need the number, in %, no unit after it.

Nc1ccccc1NC(=O)c1ccc(CNC(=O)OCc2cccnc2)cc1 + CN1CCN(c2cc(C(=O)Nc3cc4cc(-c5cnn(C)c5)ccc4cn3)ccn2)CC1 ... 88.7
C=C(F)C(=O)N1CCN(c2nc(OCC3CCCN3C)nc3c2CCN(c2cccc4cccc(Cl)c24)C3)CC1CC#N (stereo not given) + CNC(=O)c1ccc(Nc2nc(OC3CCCC3)c3c(-c4ccc5nc(C)oc5c4)c[nH]c3n2)c(OC)c1 ... 83.5
C#Cc1c(F)ccc2cc(O)cc(-c3ncc4c(N5CC6CCC(C5)N6)nc(OCC56CCCN5CC(F)C6)nc4c3F)c12 (stereo not given) + CNC(=O)c1ccc(Nc2nc(OC3CCCC3)c3c(-c4ccc5nc(C)oc5c4)c[nH]c3n2)c(OC)c1 ... 103
CCc1c2c(nc3ccc(O)cc13)-c1cc3c(c(=O)n1C2)COC(=O)[C@]3(O)CC + CNC(=O)c1ccc(Nc2nc(OC3CCCC3)c3c(-c4ccc5nc(C)oc5c4)c[nH]c3n2)c(OC)c1 ... 13.1

viability, T/C for COc1cccc2c1C(=O)c1c(O)c3c(c(O)c1C2=O)CC(O)(C(=O)CO)CC3OC1CC(N)C(O)C(C)O1 (stereo not given) + CNC(=O)c1ccc(Nc2nc(OC3CCCC3)c3c(-c4ccc5nc(C)oc5c4)c[nH]c3n2)c(OC)c1 is 89.3

* * *

# Test system: 485368-065-R4-J2-PDC spheroids with HUVEC/MSC, viability
# ASSAY INFO: Anticancer human tumor 485368-065-R4-J2-PDC cell line growth inhibition [CLK];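 also: spheroids exposed to compounds for seven days; 100% = DMSO vehicle control wells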
# CONDITION DESCRIPTION: second compound 10 µM; first compound 0.1 µM; stronger effect = lower value
Quick list: viability, T/C per entry.
Respond with the bare value in %.

CCc1c2c(nc3ccc(O)cc13)-c1cc3c(c(=O)n1C2)COC(=O)[C@]3(O)CC + CNC(=O)c1ccc(Nc2nc(OC3CCCC3)c3c(-c4ccc5nc(C)oc5c4)c[nH]c3n2)c(OC)c1 ... 7.37

viability, T/C in this record for COc1c(OCCCN2CCOCC2)ccc2c3n(c(=NC(=O)c4cnc(N)nc4)nc12)CCN3 + CNC(=O)c1ccc(Nc2nc(OC3CCCC3)c3c(-c4ccc5nc(C)oc5c4)c[nH]c3n2)c(OC)c1 : 38.8

For this compound ( COC1C=CCC(C)C(C)S(=O)(=O)NC(=O)c2ccc3c(c2)N(CC2CCC21)CC1(CCCc2cc(Cl)ccc21)CO3 (centres undefined) + CN1CCN(c2cc(C(=O)Nc3cc4cc(-c5cnn(C)c5)ccc4cn3)ccn2)CC1 ), measured viability, T/C is 4.22

C=CC(=O)N1CCN(c2nc(=O)n(-c3c(C)ccnc3C(C)C)c3nc(-c4c(O)cccc4F)c(F)cc23)C(C)C1 (centres undefined) + CN1CCN(c2cc(C(=O)Nc3cc4cc(-c5cnn(C)c5)ccc4cn3)ccn2)CC1 yielded viability, T/C of 2.84

Form field viability, T/C, entry COC1C=CCC(C)C(C)S(=O)(=O)NC(=O)c2ccc3c(c2)N(CC2CCC21)CC1(CCCc2cc(Cl)ccc21)CO3 (centres undefined) + CNC(=O)c1ccc(Nc2nc(OC3CCCC3)c3c(-c4ccc5nc(C)oc5c4)c[nH]c3n2)c(OC)c1 : 68.6

viability, T/C recorded for this compound, Nc1ccn(C2OC(CO)C(O)C2(F)F)c(=O)n1 (centres undefined) + CNC(=O)c1ccc(Nc2nc(OC3CCCC3)c3c(-c4ccc5nc(C)oc5c4)c[nH]c3n2)c(OC)c1 , is 24.5

The reported value for Nc1ccn(C2OC(CO)C(O)C2(F)F)c(=O)n1 (centres undefined) + CN1CCN(c2cc(C(=O)Nc3cc4cc(-c5cnn(C)c5)ccc4cn3)ccn2)CC1 in terms of viability, T/C is 2.34

viability, T/C reported for this compound CC(Nc1ccc2c(c1)OCCn1cc(N3C(=O)OCC3C(F)F)nc1-2)C(N)=O (centres undefined) + CNC(=O)c1ccc(Nc2nc(OC3CCCC3)c3c(-c4ccc5nc(C)oc5c4)c[nH]c3n2)c(OC)c1 : 56.6

Input C=CC(=O)N1CCN(c2nc(=O)n(-c3c(C)ccnc3C(C)C)c3nc(-c4c(O)cccc4F)c(F)cc23)C(C)C1 (centres undefined) + CNC(=O)c1ccc(Nc2nc(OC3CCCC3)c3c(-c4ccc5nc(C)oc5c4)c[nH]c3n2)c(OC)c1 . Output viability, T/C: 76.4

The recorded viability, T/C for CCCS(=O)(=O)Nc1ccc(F)c(C(=O)c2c[nH]c3ncc(-c4ccc(Cl)cc4)cc23)c1F + CN1CCN(c2cc(C(=O)Nc3cc4cc(-c5cnn(C)c5)ccc4cn3)ccn2)CC1 is 4.22

Query C=C(F)C(=O)N1CCN(c2nc(OCC3CCCN3C)nc3c2CCN(c2cccc4cccc(Cl)c24)C3)CC1CC#N (centres undefined) + CN1CCN(c2cc(C(=O)Nc3cc4cc(-c5cnn(C)c5)ccc4cn3)ccn2)CC1 yields viability, T/C of 2.28

Per the record, O=C(c1cc(Cc2n[nH]c(=O)c3ccccc23)ccc1F)N1CCN(C(=O)C2CC2)CC1 + CN1CCN(c2cc(C(=O)Nc3cc4cc(-c5cnn(C)c5)ccc4cn3)ccn2)CC1 has viability, T/C of 1.87

viability, T/C reading for CC(CO)NC(=O)c1cc(-c2ccc(Cl)cc2)nn(-c2cnn(C)c2)c1=O (centres undefined) + CNC(=O)c1ccc(Nc2nc(OC3CCCC3)c3c(-c4ccc5nc(C)oc5c4)c[nH]c3n2)c(OC)c1 : 71.2

Consider CC(=O)O[C@H]1C(=O)[C@@]2(C)[C@H]([C@H](OC(=O)c3ccccc3)[C@]3(O)C[C@H](OC(=O)[C@H](O)[C@@H](NC(=O)c4ccccc4)c4ccccc4)C(C)=C1C3(C)C)[C@]1(OC(C)=O)CO[C@@H]1C[C@@H]2O + CN1CCN(c2cc(C(=O)Nc3cc4cc(-c5cnn(C)c5)ccc4cn3)ccn2)CC1 . Its measured viability, T/C is 2.06

* * *

# Tested on: 485368-065-R4-J2-PDC spheroids with HUVEC/MSC, viability
# ASSAY INFO: Anticancer human tumor 485368-065-R4-J2-PDC cell line growth inhibition [CLK];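 also: spheroids exposed to compounds for seven days; 100% = DMSO vehicle control wells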
# CONDITION DESCRIPTION: second compound 10 µM; first compound 3.16 µM; stronger effect = lower value
PROPERTY MEASURED: viability, T/C

Below, 3 molecules whose answers are already recorded.
Nc1ccccc1NC(=O)c1ccc(CNC(=O)OCc2cccnc2)cc1 + CN1CCN(c2cc(C(=O)Nc3cc4cc(-c5cnn(C)c5)ccc4cn3)ccn2)CC1 ... 1.05%
COc1ccc([C@@H](O)c2cc(-c3ncnc4cc(N5CCOCC5)ccc34)c(F)cc2Cl)nn1 + CNC(=O)c1ccc(Nc2nc(OC3CCCC3)c3c(-c4ccc5nc(C)oc5c4)c[nH]c3n2)c(OC)c1 ... 54.8%
CC(CO)NC(=O)c1cc(-c2ccc(Cl)cc2)nn(-c2cnn(C)c2)c1=O (centres undefined) + CN1CCN(c2cc(C(=O)Nc3cc4cc(-c5cnn(C)c5)ccc4cn3)ccn2)CC1 ... 2.31%

Switching to the query record.
Summary for this molecule, CC(CO)NC(=O)c1cc(-c2ccc(Cl)cc2)nn(-c2cnn(C)c2)c1=O (centres undefined) + CNC(=O)c1ccc(Nc2nc(OC3CCCC3)c3c(-c4ccc5nc(C)oc5c4)c[nH]c3n2)c(OC)c1 : viability, T/C is 72.8%

* * *

# System: 485368-065-R4-J2-PDC spheroids with HUVEC/MSC, viability
# ASSAY INFO: Anticancer human tumor 485368-065-R4-J2-PDC cell line growth inhibition [CLK];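 also: spheroids exposed to compounds for seven days; 100% = DMSO vehicle control wells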
# CONDITION DESCRIPTION: second compound 0.1 µM; first compound 0.316 µM; stronger effect = lower value
Entries and their viability, T/C values follow.
Write the number in % without appending the unit.

CC(CO)NC(=O)c1cc(-c2ccc(Cl)cc2)nn(-c2cnn(C)c2)c1=O (stereo not given) + CNC(=O)c1ccc(Nc2nc(OC3CCCC3)c3c(-c4ccc5nc(C)oc5c4)c[nH]c3n2)c(OC)c1 ... 93.6
COc1c(OCCCN2CCOCC2)ccc2c3n(c(=NC(=O)c4cnc(N)nc4)nc12)CCN3 + CN1CCN(c2cc(C(=O)Nc3cc4cc(-c5cnn(C)c5)ccc4cn3)ccn2)CC1 ... 32.4
COc1cccc2c1C(=O)c1c(O)c3c(c(O)c1C2=O)CC(O)(C(=O)CO)CC3OC1CC(N)C(O)C(C)O1 (stereo not given) + CN1CCN(c2cc(C(=O)Nc3cc4cc(-c5cnn(C)c5)ccc4cn3)ccn2)CC1 ... 34.5
CC1(C)CCC(CN2CCN(c3ccc(C(=O)NS(=O)(=O)c4ccc(NCC5CCOCC5)c([N+](=O)[O-])c4)c(Oc4cnc5[nH]ccc5c4)c3)CC2)=C(c2ccc(Cl)cc2)C1 + CNC(=O)c1ccc(Nc2nc(OC3CCCC3)c3c(-c4ccc5nc(C)oc5c4)c[nH]c3n2)c(OC)c1 ... 98.3

Field viability, T/C (485368-065-R4-J2-PDC spheroids with HUVEC/MSC, viability), entry CCc1c2c(nc3ccc(O)cc13)-c1cc3c(c(=O)n1C2)COC(=O)[C@]3(O)CC + CNC(=O)c1ccc(Nc2nc(OC3CCCC3)c3c(-c4ccc5nc(C)oc5c4)c[nH]c3n2)c(OC)c1 : 8.97
